experiment: NCI Yeast Anticancer Drug Screen. Data for the mec2-1 strain (AID 157); conditions: S. cerevisiae mec2-1 strain, at 1.2 µM, stronger effect = higher value
About 79,000 compounds went through this panel and 15% of them were active in at least one assay; those are over-represented in the sample as a whole. Active and inactive are the calls of the source. No stated cut-off is given here; in the data, active means growth inhibition above about 70%; inactive means the rest.
Result Type: growth inhibition

Compound	Recorded Measurement
O=C(O)CN(CCNC(=O)OCC1c2ccccc2-c2ccccc21)CCNC(=O)OCC1c2ccccc2-c2ccccc21	-3% (inactive)
CCOC(=O)C1=C(C)NC(C)=C(C(=O)OCC)C1c1cccc([N+](=O)[O-])c1	-36% (inactive)
CCCCCC/C(C)=N/Nc1ccc([N+](=O)[O-])cc1[N+](=O)[O-]	-3% (inactive)
O=C(Nn1c(-c2ccccc2)nc2ccccc2c1=O)c1ccc(Cl)cc1	-15% (inactive)
CC1C=CN(N(C)C)C2=C1C(=O)c1cnccc1C2=O (stereo not given)	-36% (inactive)
N=C(N)c1ccc(N=Nc2c(O)ccc3c2[nH]c2ccccc23)cc1	-3% (inactive)
O=S(=O)(O)CC[S][Sn]([S]CCS(=O)(=O)O)([c]1ccccc1)[c]1ccccc1	-21% (inactive)
COc1ccc(CCN2C(=O)C=CC2=O)cc1OC	5% (inactive)
C#CC1=CC(=O)C(OC)=CC1=O	0% (inactive)
BrC/C=C/C[P+](c1ccccc1)(c1ccccc1)c1ccccc1	5% (inactive)

---

test: NCI Yeast Anticancer Drug Screen. Data for the mec2-1 strain (AID 157); settings: S. cerevisiae mec2-1 strain, at 3.7 µM
About 79,000 compounds went through this panel and 15% of them were active in at least one assay; those are over-represented in the sample as a whole. Activity calls are given as the source filed them. Rule as the data show it: active = growth inhibition above about 70%; inactive = the rest.
Possible outcomes: T (active), F (inactive)

Compound	Answer Label
Cn1c(COc2ccc(/C=N/NC(=O)CCC(=O)N/N=C/c3ccc(OCc4c[n+]5ccccc5n4C)cc3)cc2)c[n+]2ccccc12	F
O=C(c1c(F)c(F)c(F)c(F)c1F)c1c(F)c(F)c(F)c(F)c1F	T
CN(NC(=O)/C(=C/C=C/c1ccccc1)NC(=O)c1ccccc1)C1=C(Cl)C(=O)[N+](c2ccccc2)=CC1	F
COc1ccc(/C(=N/O)c2ccccc2C2=Nc3ccccc3C(NCc3ccccc3)O2)cc1C (stereo not given)	F
Nc1c([N+](=O)[O-])cc2c3c(cccc13)CC2	F
O=S(=O)(O)c1ccc2c(N=Nc3c(O)ccc4ccccc34)cccc2c1	F
CN(C)CCNC(=O)c1cccc2nc3c(ccc4ccccc43)nc12	F
CC(C)OC(CCC#N)c1ccc(Cl)cc1 (stereo not given)	F
c1ccc(C2=NNC3c4ccccc4-c4ccccc4N3C2)cc1 (stereo not given)	F
COc1ccc(C(=O)OCCc2ccccc2)cc1	F

---

test: NCI Yeast Anticancer Drug Screen. Data for the rad50EPP+ strain (AID 151);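 further: 0% = growth of vehicle-treated control cultures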; conditions: S. cerevisiae rad50 mutant strain, at 33.0 µM, stronger effect = higher value
About 79,000 compounds went through this panel and 15% of them were active in at least one assay; those are over-represented in the sample as a whole.
Classification field: condition met = growth inhibition at or over 20%; condition not met = growth inhibition under 20%.

Compound	Answer Label
O=[N+]([O-])c1ccc2nnnn2c1	condition met
S=C1NC2=C(CSC/C2=C\c2ccc(Cl)cc2)C(c2ccc(Cl)cc2)N1 (stereo unspecified)	condition not met
CCCC#CCOC(=O)c1cc([N+](=O)[O-])cc([N+](=O)[O-])c1	condition met
CCOC(=O)/C=C1\CCCn2c1ncc(C(=O)OCC)c2=O	condition not met
O=C1c2ccccc2-c2ccc(NC(=O)C3CCCCC3C(=O)O)cc21 (stereo unspecified)	condition met
N#C/C(=C1C=C/C(=N\O)C(Cl)=C\1)c1ccccc1	condition met
O=C(CCCN1CCC2(CC1)OC(=O)N(c1ccccc1)C2=O)c1ccccc1	condition met
Cc1ccc(C(C)C)c(C(=C2C=CC(=[N+](C)C)C=C2)c2c(C(C)C)ccc(C)c2O)c1O	condition not met
CCN(CC)c1cccc(Nc2nc3ccccc3s2)c1	condition not met
Cc1cc(N(CCOS(C)(=O)=O)CCOS(C)(=O)=O)ccc1C=O	condition met
COc1ccc(/C(=N/O)c2ccccc2C2=Nc3ccccc3C(NCc3ccccc3)O2)cc1C (stereo unspecified)	condition met

---

assay: NCI Yeast Anticancer Drug Screen. Data for the rad50 strain (AID 155);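 further: 0% = growth of vehicle-only cultures of the same strain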; details: S. cerevisiae rad50 strain growth inhibition; at 50.0 µM (retest, dose inferred, filed as 5.0)
The panel holds about 79,000 compounds, 15% with a hit somewhere; the sample as a whole holds those more often. Active and inactive are the calls of the source. Rule as the data show it: active = growth inhibition above about 70%; inactive = the rest.
Possible outcomes: active, inactive

Molecule	Answer Label
CNC(=O)OCc1c(COC(=O)NC)c(C)n(-c2ccc(Cl)c(Cl)c2)c1C	active
CC(C)c1ccc(C2NC(=S)NC3=C2c2ccccc2C3=O)cc1 (stereo not given)	inactive
CCc1nc2ccc(N=Nc3c(O)ccc4ccccc34)cc2[nH]1	inactive
O=S(=O)(Oc1c(Cl)cc(Cl)cc1Cl)c1ccccc1	inactive
COc1ccc(C(=O)OCCc2ccccc2)cc1	inactive
COc1ccc(CCN2C(=O)C=CC2=O)cc1OC	inactive
O=C1OC(/C=C/c2ccccc2)Sc2ccccc21 (stereo not given)	inactive
CCOc1nc(OCC)nc(-c2cccn2-c2ccccc2)n1	active
CCCCCCCCCCCCOC1C(COCCN2CCCC2)OC2OC(C)(C)OC21 (stereo not given)	active
O=C(CSS(=O)(=O)O)c1ccccc1	inactive
COc1ccc2nc3cccc([N+](=O)[O-])c3c(NCCCO)c2c1	active
COc1ccc2cc(CN3CCC(C4CCN(Cc5ccc6cc(OC)ccc6c5)CC4)CC3)ccc2c1	inactive
O=Cc1ccccc1B(O)O	active
CC1(C)CC(=O)C(C(CC(c2ccccc2)c2cc3c(cc2O)OCO3)C2=C(O)CC(C)(C)CC2=O)=C(O)C1 (stereo not given)	active
O=[N+]([O-])C(=C(NCc1ccccc1)NCc1ccccc1)C(Cl)=C(Cl)Cl	inactive
O=S(=O)(O)CC[S][Sn]([S]CCS(=O)(=O)O)([c]1ccccc1)[c]1ccccc1	active
CCOc1ccccc1N1C(=O)CC(Sc2ccccc2N)C1=O (stereo not given)	active
CN(Cc1cccc2ccccc12)Cc1cccc2ccccc12	active
CC(O)CN1C(=O)c2cccc3cc([N+](=O)[O-])cc(c23)C1=O (stereo not given)	active
COc1ccc2c(Cc3c4ccccc4cc4ccccc34)cncc2c1O	active
O=S(=O)(O)c1ccc2c(N=Nc3c(O)ccc4ccccc34)cccc2c1	active
Nc1c([N+](=O)[O-])cc2c3c(cccc13)CC2	active
O=C1c2ccccc2-c2ccc(NC(=O)C3CCCCC3C(=O)O)cc21 (stereo not given)	inactive
COc1ccc(C(=O)NCCN(C)C)c2nc3ccccc3cc12	active
c1cc(Nc2ccc3c(c2)OCO3)c2cc(C3CCCCC3)ccc2n1	inactive

---

assay: NCI Yeast Anticancer Drug Screen. Data for the rad50 strain (AID 155);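 further: 0% = growth of vehicle-only cultures of the same strain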; details: S. cerevisiae rad50 strain growth inhibition; at 50.0 µM; stronger effect = higher value
This is part of a sample that, as a whole, favours compounds with a hit. Of some 79,000 tested, about 15% had one in any assay.

Compound	growth inhibition (%)
CCN(CC)c1cccc(Nc2nc3ccccc3s2)c1	1.6
CC[C@]1(O)C[C@H]2CN(CCc3c([nH]c4ccccc34)[C@@](C(=O)OC)(c3cc4c(cc3OC)N(C)[C@H]3[C@@](O)(C(=O)OC)[C@H](OC(C)=O)[C@]5(CC)C=CCN6CC[C@]43[C@@H]65)C2)C1	-4.25
CCCCCCCCCCCCOC1C(COCCN2CCCC2)OC2OC(C)(C)OC21 (centres undefined)	93
Cn1c(COc2ccc(/C=N/NC(=O)CCC(=O)N/N=C/c3ccc(OCc4c[n+]5ccccc5n4C)cc3)cc2)c[n+]2ccccc12	49.1
CNc1ccc2[nH]c3ccccc3c2c1	90
O=C(Cc1ccccc1F)NC1=C(Cl)C(=O)c2ccccc2C1=O	30.8
Cc1nc2ccccc2c(=O)n1NC(=O)c1ccc(CS)cc1	66.2
Clc1ccc(C(c2ccc(Cl)cc2)N2CCNCC2)cc1	92
CN(Cc1cccc2ccccc12)Cc1cccc2ccccc12	60.5

---

assay: NCI Yeast Anticancer Drug Screen. Data for the sgs1 mgt1 strain (AID 161);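 further: 0% = growth of cultures given vehicle only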; conditions: S. cerevisiae sgs1 mgt1 strain, at 50.0 µM (retest, dose inferred, filed as 5.0), stronger effect = higher value
Compounds without any hit were thinned out: in the full panel of roughly 79,000, 15% have a hit. Starred links: 1 amine or outer side, 2 acyl side, 3 side chain; linkers in the order of their positions; H or OH if unused. Positions of bridges follow the written chain, without caps; N, C: chain ends. Non-standard residues stand in square brackets, D forms with d. Residues, ends and D or L forms follow the SMILES beside them. Chains are numbered I, II in the order given. Actinocin(9to1) = Cc1c2oc3c(C)ccc(C(=O)[*:1])c3nc-2c(C(=O)[*:2])c(N)c1=O; aThr = C[C@H](O)[C@H](N)C(=O)O; NMeV = CN[C@H](C(=O)O)C(C)C; Sar = CNCC(=O)O
Classes by growth inhibition: range 1 = under 30%, range 2 = from 30% up to 90%, range 3 = 90% and over

Compound	Answer Label
CC(C)(C)[Si](C)(C)OCC1OC(n2cnc3c(N)ncnc32)C2OC(=S)OC12 (stereo not given)	range 1
C=Cc1c(C)c(O)cc2c1-c1ccc(O)c(C)c1CC2	range 3
Cc1c2oc3c(C)ccc(C(=O)N[C@@H]4C(=O)N[C@H](C(C)C)C(=O)N5CCC[C@H]5C(=O)N(C)CC(=O)N(C)[C@@H](C(C)C)C(=O)O[C@H]4C)c3nc-2c(C(=O)N[C@@H]2C(=O)N[C@H](C(C)C)C(=O)N3CCC[C@H]3C(=O)N(C)CC(=O)N(C)[C@@H](C(C)C)C(=O)O[C@H]2C)c(N)c1=O (I: [aThr][dV]P[Sar][NMeV] / II: [aThr][dV]P[Sar][NMeV]; ester I:1-I:C, II:1-II:C; linker I:N-II:N via Actinocin(9to1))	range 3
O=C1OC(c2ccc(Cl)cc2)Sc2ccccc21 (stereo not given)	range 2
O=S(=O)(Oc1c(Cl)cc(Cl)cc1Cl)c1ccccc1	range 2
CC(=O)c1ccc(NCN2C(=O)c3ccccc3C2=O)cc1	range 1
CC[C@@]1(OC(=O)CN(C)C)C(=O)OCc2c1cc1n(c2=O)Cc2cc3ccccc3nc2-1	range 3
S=c1[nH]nc(Cc2ccccc2)c(=S)[nH]1	range 2
Oc1ccc(Cc2nccc3cc(O)c(O)cc23)cc1O	range 2
CCOC(=O)c1[nH]c2cccc3c2c1CC(Br)C3=O (stereo not given)	range 3
BrC/C=C/C[P+](c1ccccc1)(c1ccccc1)c1ccccc1	range 1
COc1cc(C(C)C(C(=O)O)C(=O)C(=O)O)cc(OC)c1OC (stereo not given)	range 1
C#CC1=CC(=O)C(OC)=CC1=O	range 3
CCOC(=O)/C=C1\CCCn2c1ncc(C(=O)OCC)c2=O	range 1
CCN(CC)c1cccc(Nc2nc3ccccc3s2)c1	range 1
CC1=Cc2ccc(C)cc2C(=O)C1=O	range 3
Cc1ccccc1C1=C(CC(=O)O)c2ccccc2CC1C (stereo not given)	range 1
O=[N+]([O-])c1cccc2nc3ccccc3c(NCCC[N+]3([O-])CCOCC3)c12	range 3
OC1C#CCSCC#C/C=C\1 (stereo not given)	range 3
